# System: HL-60(TB) leukemia
# assay: NCI-60 one-dose screen, 48 h
# run conditions: 10 µM unless noted
Compounds without any hit were thinned out: in the full panel of roughly 83,000, 20% have a hit. Active and inactive are the calls of the source. How the source made its calls: active means growth percent below 10; inactive means the rest.
Answer with one of the outcomes T (active), F (inactive)

                                   molecule     target_of_assay  label_value
0  CC(=O)n1nc(C(=O)OC(C)(C)c2ccccc2)c2ccccc21  HL-60(TB) leukemia            F
1  C=CCC(=O)N[C@H](/C=C/C(=O)O)Cc1ccc(-c2cc(Cl)cc(Cl)c2)cc1  HL-60(TB) leukemia            F

Could you kindly confirm the outcome this assay logged for "COc1ccc(-c2cc(Cc3cccs3)c(=O)n(Cn3ccc4ccccc43)n2)cc1" ?
F

Okay, and "O=C(CN1CCN(c2ccc(Cl)cc2)CC1)N1CCN(c2nnc(-c3ccccc3)c(-c3ccccc3)n2)CC1" ?
T

Also, CC12CCC3c4ccc(O)cc4CCC3C1CCC2=O (stereo not given) please.
F

// query: "Ic1ccccc1I"
F

Entry to check: Cc1cn(C(C=O)OC(C=O)CO)c(=O)[nH]c1=O (stereo not given)
F

Okay, and "CNC(=O)c1[nH]cc(-c2ccccc2)c1-c1cc(OC)c2c(c1OC)OCO2" ?
F

One more molecule: "C=C(C)[C@@H]1CC[C@]2(C)[C@H](CC[C@@H]3[C@@H]([C@@](C)(O)CCC=C(C)C)CC[C@]32C)[C@@]1(C)CCC(=O)O"
T

Ok, now "O=C(CCl)N1c2ccccc2Oc2ccc3ccccc3c21"
T

These data points were gathered from PubChem BioAssay (NCI).
